Entries and their EC50 values follow.
- Tested on: TGF-β1
- TEST SUMMARY: EC50 of TGF-β1 siRNA candidates before and after modification, knockdown in cells
- Type: cell-based, human
- EXPERIMENTAL CONTEXT: RKO cells, homo, 24 h, 24well (Table 6); read-out: EC50 (nM, 24 h, 24well) RKO
Oligonucleotides are written 5' to 3', each unit as a sugar letter and its base; * is a phosphorothioate linkage, no mark a phosphodiester; rarer units and linkages stand in square brackets, end groups in braces. Plain capitals give the bases only. {P} = phosphorylation (indicated by P); d = 2'-deoxy (DNA); m = 2'-O-methyl; r = 2'-OH (RNA); f = 2'-fluoro

SUBSTANCE	EC50
TF1-21-hm3#mod: Modified (2′F, 2′OME, phosphorylation) siRNA targeting TGF-β1; sense SEQ ID 147, antisense SEQ ID 151 (sense mAmAmCmUmAmUfUfGfCmUmUmCmAmGmCmUmCmCmAdTdT; antisense {P}-mUfGmGmAmGmCmUmGmAmAmGmCmAfAmUmAmGmUmUdTdT)	0.08 nM
TF1-21-hm6#: siRNA targeting TGF-β1 mRNA; sense SEQ ID 26, antisense SEQ ID 36 (sense CGGCAGCUGUACAUUGACUTT; antisense AGUCAAUGUACAGCUGCCGTT; sugars from the 5' end r19 d2, backbone not given here)	0.05 nM
TF1-21-hm3#: siRNA targeting TGF-β1 mRNA; sense SEQ ID 23, antisense SEQ ID 33 (sense AACUAUUGCUUCAGCUCCATT; antisense UGGAGCUGAAGCAAUAGUUTT; sugars from the 5' end r19 d2, backbone not given here)	0.1 nM
TF1-21-hm6#mod: Modified (2′F, 2′OME, phosphorylation) siRNA targeting TGF-β1; sense SEQ ID 148, antisense SEQ ID 152 (sense mCmGmGmCmAmGfCfUfGmUmAmCmAmUmUmGmAmCmUdTdT; antisense {P}-mAfGmUmCmAmAmUmGmUmAmCmAmGfCmUmGmCmCmGdTdT)	0.04 nM

----------
- Tested on: VEGFR2
- TEST SUMMARY: EC50 of VEGFR2 siRNA candidates before and after modification, knockdown in cells
- Assay type: cell-based, human
- EXPERIMENTAL CONTEXT: PANC-1 cells, 24 h, 24well; read-out: EC50 (nM, 24 h, 24well) Pancreatic cancer PANC-1
Oligonucleotides are written 5' to 3', each unit as a sugar letter and its base; * is a phosphorothioate linkage, no mark a phosphodiester; rarer units and linkages stand in square brackets, end groups in braces. Plain capitals give the bases only. {P} = phosphorylation (indicated by P); d = 2'-deoxy (DNA); m = 2'-O-methyl; f = 2'-fluoro

SUBSTANCE	EC50 / nM
VEGFR2-25-h3#mod: Modified (2′F, 2′OME, phosphorylation) siRNA targeting VEGFR2; sense SEQ ID 133, antisense SEQ ID 141 (sense mGmAmCmCmAmAmCmAmUmGmGmAfGfUfCmGmUmGmUmAmCmAmUmUmA; antisense {P}-mUfAmAmUmGmUmAmCmAmCmGmAmCfUmCmCmAmUmGmUmUmGmGmUmC)	1.76
VEGFR2-25-h 4#mod: Modified (2′F, 2′OME, phosphorylation) siRNA targeting VEGFR2; sense SEQ ID 134, antisense SEQ ID 142 (sense mCmCmCmUmUmGmAmGmUmCmCmAfAfUfCmAmCmAmCmAmAmUmUmAmA; antisense {P}-mUfUmAmAmUmUmGmUmGmUmGmAmUfUmGmGmAmCmUmCmAmAmGmGmG)	0.35
VEGFR2-21-hm17#mod: Modified (2′F, 2′OME, phosphorylation) siRNA targeting VEGFR2; sense SEQ ID 135, antisense SEQ ID 143 (sense mGmGmAmCmUmGfGfCfUmUmUmGmGmCmCmCmAmAmUdTdT; antisense {P}-mAfUmUmGmGmGmCmCmAmAmAmGmCfCmAmGmUmCmCdTdT)	0.25
